test system: Mus musculus; assay: Toxicity in ovariectomized ICR mouse assessed as kidney weight at 110.3 nmol/kg, po treated for 4 weeks measured after 1 day of last treatment; format: organism-based; conditions: in vivo, 24 h
Residues, ends and D or L forms follow the SMILES beside them. *: point of attachment. Succinyl(O17-estradiol) = C[C@]12CC[C@@H]3c4ccc(O)cc4CC[C@H]3[C@@H]1CC[C@@H]2OC(=O)CCC(=O)*; Acetyl(estradiol-3-yloxy) = C[C@]12CC[C@@H]3c4ccc(OCC(=O)*)cc4CC[C@H]3[C@@H]1CC[C@@H]2O
As shown below, each of these molecules has a reported Activity value.

# molecule, assayTarget, Activity, g
rows = [
    ("C[C@]12CC[C@@H]3c4ccc(O)cc4CC[C@H]3[C@@H]1CC[C@@H]2OC(=O)CCC(=O)N[C@@H](CCCNC(=N)N)C(=O)NCC(=O)N[C@@H](CC(=O)O)C(=O)N[C@@H](Cc1ccccc1)C(=O)N[C@@H](CCCNC(=N)N)C(=O)NCC(=O)N[C@@H](CC(=O)O)C(=O)N[C@@H](Cc1ccccc1)C(=O)O ({Succinyl(O17-estradiol)}-RGDFRGDF-OH)", "Mus musculus", 0.16),
    ("C[C@]12CC[C@@H]3c4ccc(OCC(=O)N[C@@H](CCCNC(=N)N)C(=O)NCC(=O)N[C@@H](CC(=O)O)C(=O)N[C@@H](Cc5ccccc5)C(=O)N[C@@H](CCCNC(=N)N)C(=O)NCC(=O)N[C@@H](CC(=O)O)C(=O)N[C@@H](Cc5ccccc5)C(=O)O)cc4CC[C@H]3[C@@H]1CC[C@@H]2O ({Acetyl(estradiol-3-yloxy)}-RGDFRGDF-OH)", "Mus musculus", 0.169),
    ("CC(C)[C@H](NC(=O)[C@H](CC(=O)O)NC(=O)CNC(=O)[C@H](CCCNC(=N)N)NC(=O)CCC(=O)O[C@H]1CC[C@H]2[C@@H]3CCc4cc(O)ccc4[C@H]3CC[C@]12C)C(=O)O ({Succinyl(O17-estradiol)}-RGDV-OH)", "Mus musculus", 0.178),
    ("CC(C)[C@H](NC(=O)[C@H](CC(=O)O)NC(=O)CNC(=O)[C@H](CCCNC(=N)N)NC(=O)COc1ccc2c(c1)CC[C@@H]1[C@@H]2CC[C@]2(C)[C@@H](O)CC[C@@H]12)C(=O)O ({Acetyl(estradiol-3-yloxy)}-RGDV-OH)", "Mus musculus", 0.167),
    ("C[C@]12CC[C@@H]3c4ccc(OCC(=O)N[C@@H](CCCNC(=N)N)C(=O)NCC(=O)N[C@@H](CC(=O)O)C(=O)N[C@@H](Cc5ccccc5)C(=O)O)cc4CC[C@H]3[C@@H]1CC[C@@H]2O ({Acetyl(estradiol-3-yloxy)}-RGDF-OH)", "Mus musculus", 0.159),
    ("C[C@]12CC[C@@H]3c4ccc(O)cc4CC[C@H]3[C@@H]1CC[C@@H]2O", "Mus musculus", 0.173),
    ("C[C@]12CC[C@@H]3c4ccc(O)cc4CC[C@H]3[C@@H]1CC[C@@H]2OC(=O)CCC(=O)N[C@@H](CCCNC(=N)N)C(=O)NCC(=O)N[C@@H](CC(=O)O)C(=O)N[C@@H](CO)C(=O)N[C@@H](CCCNC(=N)N)C(=O)NCC(=O)N[C@@H](CC(=O)O)C(=O)N[C@@H](CO)C(=O)O ({Succinyl(O17-estradiol)}-RGDSRGDS-OH)", "Mus musculus", 0.174),
    ("C[C@]12CC[C@@H]3c4ccc(O)cc4CC[C@H]3[C@@H]1CC[C@@H]2OC(=O)CCC(=O)N[C@@H](CCCNC(=N)N)C(=O)NCC(=O)N[C@@H](CC(=O)O)C(=O)N[C@@H](Cc1ccccc1)C(=O)O ({Succinyl(O17-estradiol)}-RGDF-OH)", "Mus musculus", 0.16),
    ("C[C@]12CC[C@@H]3c4ccc(OCC(=O)N[C@@H](CCCNC(=N)N)C(=O)NCC(=O)N[C@@H](CC(=O)O)C(=O)N[C@@H](CO)C(=O)N[C@@H](CCCNC(=N)N)C(=O)NCC(=O)N[C@@H](CC(=O)O)C(=O)N[C@@H](CO)C(=O)O)cc4CC[C@H]3[C@@H]1CC[C@@H]2O ({Acetyl(estradiol-3-yloxy)}-RGDSRGDS-OH)", "Mus musculus", 0.17),
]

----------
tested on: Mus musculus; test: Antiosteoporosis activity in ovariectomized ICR mouse assessed as mineral content in femur at 110.3 nmol/kg, po treated for 4 weeks measured after 1 day of last treatment; format: functional
Residues, ends and D or L forms follow the SMILES beside them. *: point of attachment. Succinyl(O17-estradiol) = C[C@]12CC[C@@H]3c4ccc(O)cc4CC[C@H]3[C@@H]1CC[C@@H]2OC(=O)CCC(=O)*; Acetyl(estradiol-3-yloxy) = C[C@]12CC[C@@H]3c4ccc(OCC(=O)*)cc4CC[C@H]3[C@@H]1CC[C@@H]2O
measuredProperty: Activity (%)

# molecule, result
rows = [
    ("C[C@]12CC[C@@H]3c4ccc(OCC(=O)N[C@@H](CCCNC(=N)N)C(=O)NCC(=O)N[C@@H](CC(=O)O)C(=O)N[C@@H](Cc5ccccc5)C(=O)O)cc4CC[C@H]3[C@@H]1CC[C@@H]2O ({Acetyl(estradiol-3-yloxy)}-RGDF-OH)", 0.596),
    ("CC(C)[C@H](NC(=O)[C@H](CC(=O)O)NC(=O)CNC(=O)[C@H](CCCNC(=N)N)NC(=O)COc1ccc2c(c1)CC[C@@H]1[C@@H]2CC[C@]2(C)[C@@H](O)CC[C@@H]12)C(=O)O ({Acetyl(estradiol-3-yloxy)}-RGDV-OH)", 0.611),
    ("CC(C)[C@H](NC(=O)[C@H](CC(=O)O)NC(=O)CNC(=O)[C@H](CCCNC(=N)N)NC(=O)CCC(=O)O[C@H]1CC[C@H]2[C@@H]3CCc4cc(O)ccc4[C@H]3CC[C@]12C)C(=O)O ({Succinyl(O17-estradiol)}-RGDV-OH)", 0.612),
    ("C[C@]12CC[C@@H]3c4ccc(OCC(=O)N[C@@H](CCCNC(=N)N)C(=O)NCC(=O)N[C@@H](CC(=O)O)C(=O)N[C@@H](Cc5ccccc5)C(=O)N[C@@H](CCCNC(=N)N)C(=O)NCC(=O)N[C@@H](CC(=O)O)C(=O)N[C@@H](Cc5ccccc5)C(=O)O)cc4CC[C@H]3[C@@H]1CC[C@@H]2O ({Acetyl(estradiol-3-yloxy)}-RGDFRGDF-OH)", 0.623),
]

----------
tested on: Mus musculus; experiment: Toxicity in ovariectomized ICR mouse assessed as effect on tail bleeding time at 110.3 nmol/kg, po treated for 4 weeks measured after 90 mins of last treatment; assay type: organism-based; details: in vivo, 1.5 h
Residues, ends and D or L forms follow the SMILES beside them. *: point of attachment. Succinyl(O17-estradiol) = C[C@]12CC[C@@H]3c4ccc(O)cc4CC[C@H]3[C@@H]1CC[C@@H]2OC(=O)CCC(=O)*
As shown below, each of these compounds has a reported Time value.
measuredProperty: Time (s)

# compound, assayTarget, measuredProperty, valueUnit, result
measured = [
    ("CC(C)[C@H](NC(=O)[C@H](CC(=O)O)NC(=O)CNC(=O)[C@H](CCCNC(=N)N)NC(=O)CCC(=O)O[C@H]1CC[C@H]2[C@@H]3CCc4cc(O)ccc4[C@H]3CC[C@]12C)C(=O)O ({Succinyl(O17-estradiol)}-RGDV-OH)", "Mus musculus", "Time", "s", 560),
    ("C[C@]12CC[C@@H]3c4ccc(O)cc4CC[C@H]3[C@@H]1CC[C@@H]2OC(=O)CCC(=O)N[C@@H](CCCNC(=N)N)C(=O)NCC(=O)N[C@@H](CC(=O)O)C(=O)N[C@@H](Cc1ccccc1)C(=O)N[C@@H](CCCNC(=N)N)C(=O)NCC(=O)N[C@@H](CC(=O)O)C(=O)N[C@@H](Cc1ccccc1)C(=O)O ({Succinyl(O17-estradiol)}-RGDFRGDF-OH)", "Mus musculus", "Time", "s", 571),
    ("C[C@]12CC[C@@H]3c4ccc(O)cc4CC[C@H]3[C@@H]1CC[C@@H]2OC(=O)CCC(=O)N[C@@H](CCCNC(=N)N)C(=O)NCC(=O)N[C@@H](CC(=O)O)C(=O)N[C@@H](CO)C(=O)O ({Succinyl(O17-estradiol)}-RGDS-OH)", "Mus musculus", "Time", "s", 561),
]

----------
tested on: Mus musculus; assay: Antiosteoporosis activity in ovariectomized ICR mouse assessed as length of femur at 110.3 nmol/kg, po treated for 4 weeks measured after 1 day of last treatment; type: functional
Residues, ends and D or L forms follow the SMILES beside them. *: point of attachment. Succinyl(O17-estradiol) = C[C@]12CC[C@@H]3c4ccc(O)cc4CC[C@H]3[C@@H]1CC[C@@H]2OC(=O)CCC(=O)*; Acetyl(estradiol-3-yloxy) = C[C@]12CC[C@@H]3c4ccc(OCC(=O)*)cc4CC[C@H]3[C@@H]1CC[C@@H]2O
As shown below, each of these compounds has a reported Activity value.
measuredProperty: Activity (cm)

# compound, result
data = [
    ("CC(C)[C@H](NC(=O)[C@H](CC(=O)O)NC(=O)CNC(=O)[C@H](CCCNC(=N)N)NC(=O)CCC(=O)O[C@H]1CC[C@H]2[C@@H]3CCc4cc(O)ccc4[C@H]3CC[C@]12C)C(=O)O ({Succinyl(O17-estradiol)}-RGDV-OH)", 1.672),
    ("CC(C)[C@H](NC(=O)[C@H](CC(=O)O)NC(=O)CNC(=O)[C@H](CCCNC(=N)N)NC(=O)COc1ccc2c(c1)CC[C@@H]1[C@@H]2CC[C@]2(C)[C@@H](O)CC[C@@H]12)C(=O)O ({Acetyl(estradiol-3-yloxy)}-RGDV-OH)", 1.67),
    ("C[C@]12CC[C@@H]3c4ccc(OCC(=O)N[C@@H](CCCNC(=N)N)C(=O)NCC(=O)N[C@@H](CC(=O)O)C(=O)N[C@@H](CO)C(=O)N[C@@H](CCCNC(=N)N)C(=O)NCC(=O)N[C@@H](CC(=O)O)C(=O)N[C@@H](CO)C(=O)O)cc4CC[C@H]3[C@@H]1CC[C@@H]2O ({Acetyl(estradiol-3-yloxy)}-RGDSRGDS-OH)", 1.657),
]
